measured metric: melting point

Q. // query melting point value for entry COC(=O)C(CCO)NS(=O)(=O)c1ccc(Cl)cc1 (racemic)
A. 91 to 92 °C

Q. Moving on to N#Cc1cnc2n(c1=O)CCCCC2
A. 125 °C

Q. Here is the next compound: Cc1cc(-c2cccc(NC(=O)C3CCC3)c2)n2ncc(C(=O)c3cccs3)c2n1
A. 121 to 123 °C

Q. Also CC(C)c1ccc(C2(OC(=O)C(C)(C)C)C(=O)c3ccccc3C2=O)c(OC(=O)C(C)(C)C)c1 ?
A. 121 to 124 °C

Q. Repeat for the following compound: Cc1cc(-c2cc(C(F)(F)F)[nH]n2)c(F)cc1Cl
A. 159 °C

Q. Do the same for CCCCCCCc1cn2cc(-c3ccc(O)cc3)nc2s1 please
A. 122 °C

Q. Next up: CS(=O)(=O)Nc1ccc(OC2CCN(c3ccncc3)CC2)cc1
A. 191 to 192 °C

Q. Record: CC1(c2ccccc2)OC(=S)Nc2ccc(-c3cccc(Cl)c3)cc21 (stereo not given)
A. 202 to 203 °C

Q. // same read-out, input: CN(C)[C@@H]1c2ccccc2N(C(=O)c2ccc(NC(=O)c3ccccc3Cl)cc2)CC[C@H]1O (relative stereo)
A. 180 to 182 °C

Q. Cool, now Cc1nc2c(OCc3ccccc3)cc(C(=O)N(C)C)cn2c1C
A. 160 °C

Q. What do you get for O=C(CSCc1ccc(Cl)cc1Cl)NO ?
A. 116 °C

Q. Same for CCCCc1c(/C=C/c2ccccc2OCC)nc2ccc(C(=O)O)cn2c1=O
A. 265 to 268 °C

Q. Lookup CCOC(=O)c1ccc(NCc2cc3c(cc2O)CCCO3)cc1
A. 150 °C

Q. Next record, please: O=[N+]([O-])c1ccc(OCCN2CCC(Cc3ccccc3)CC2)cc1O
A. 136 to 137 °C

Q. # iterate: C[C@@H](NC(=O)c1ccc(-c2ccc(Cl)cc2)cc1)[C@](O)(Cn1cncn1)c1ccc(F)cc1F
A. 173 to 174 °C

Q. Request: Cc1csc(C(=O)OC(C)C)c1N
A. 40 °C

Q. Try this compound next: O=C1c2ccccc2C(=O)N1CCOc1nc(-c2ccccc2)c2cc(Cl)ccc2n1
A. 155 °C

Q. And O=C(O)c1ccc(COc2ccc3cc(-c4ccc(-c5ccccc5)[nH]4)ccc3c2)c(C(=O)O)c1 ?
A. 289 to 291 °C

Q. Also COc1ccccc1N1CCN(CC(O)COc2ccccc2CC(N)=O)CC1 (stereo not given) ?
A. 120 to 122 °C

Q. What do we get for FC(F)(F)c1ccc(C=Cc2nc[nH]n2)cc1 ?
A. 141 to 143 °C

* * *

measured metric: melting point

Q. Form field: reported melting point of Cc1ccc(Sc2ccccc2C(=O)O)c([N+](=O)[O-])c1
A. 189 to 191 °C

Q. Please give the result for Cc1ccc2c(c1)CC(=O)N2c1c(F)cc(F)c(F)c1F too.
A. 172 to 173 °C

Q. For COc1cc2c(c(OC)c1OC)CC(CCCCCCC1Cc3cc(OC)c(OC)c(OC)c3C1)C2 (stereo not given) then?
A. 69 to 70 °C

Q. COc1ccc(C(=O)N2c3ccccc3C(N3CCc4ccccc43)CC2C)cc1OC (stereo not given) , same question.
A. 147 to 148 °C

Q. Request: O=C(Nc1ccc(Cl)cc1)/C(Br)=C/Br
A. 99.5 to 100 °C

Q. Same lookup for CC(C)(C)NCC(O)c1cc(Br)c(N)c([N+](=O)[O-])c1 (stereo not given) , please.
A. 151 to 152 °C

Q. Also CC(C)=CCN1Cc2cccc3[nH]c(=S)n(c23)CC1C (stereo not given) , if possible.
A. 128 °C

Q. Another compound: CN(C(=O)c1ccccc1)c1cccc(-c2nc(=O)c3ccccc3s2)n1
A. 234 to 235 °C

Q. Try this compound next: C#CC1C2=C(c3ccc(OCc4ccccc4[N+](=O)[O-])cc3N1C(=O)Oc1ccccc1)C(O[Si](C)(C)C(C)(C)C)CCC2 (stereo not given)
A. 188 to 190 °C

Q. Do the same for O=S(=O)(Nc1cc(-c2ncc(C(F)(F)F)cc2Cl)ccc1Cl)c1ccc(Cl)cc1 please
A. 156 to 157 °C

Q. Also COc1ccc(-c2sc3c(c2C)c(=O)c(COC(C)=O)cn3Cc2ccccc2OC)cc1 , if possible.
A. 158 to 159 °C

Q. Thanks! And CSc1nc(Cl)c(Cl)nc1Cl ?
A. 45 to 47 °C

Q. Check C[C@H]1C(=O)C[C@@H]2C[C@H]1OO[C@]2(C)/C=C/C(=O)c1ccc(Cl)cc1 too.
A. 127 °C

Q. Also check COc1ccc(C(=O)c2cccc(OC)c2)cc1
A. 53 to 55 °C

Q. Consider next the compound NC(=O)N(O)Cc1ccc2c(c1)CCN2CCCc1ccccc1 in the same way.
A. 94 to 94.5 °C

Q. Thanks! And C[C@H](CNC(=O)c1c(Cl)ccc2nc(N3CCC(C(=O)O)CC3)ccc12)c1ccccc1 ?
A. 150 to 153 °C

Q. Also COC(=O)N1CCC2=NNC(=O)CC2C1 (stereo not given) ?
A. 163 to 165 °C

Q. Thanks! And CCOCCNc1nc(S)nc(N[C@@H](C)c2ccccc2)n1 ?
A. 53 °C

Q. And what about the compound COc1ccc(Cl)cc1C(=O)NCCc1ccc(-c2ccccn2)c(S(N)(=O)=O)c1 ?
A. 202 to 203 °C

Q. How about Clc1ccc2[nH]cc(C3=CCN(CCOc4ccccc4)CC3)c2c1 ?
A. 172 °C

* * *

Exercise: state measured melting point for each of the compounds provided.

Q. I would be grateful if you could share the reported melting point for N#Cc1c(Sc2ncc([N+](=O)[O-])s2)nsc1Sc1ncc([N+](=O)[O-])s1 .
A. 197 to 200 °C

Q. CSc1cc(C)nc(SC)c1NC(=O)CCCCCCCSc1nc2ccccc2o1 , same question.
A. 119 to 122 °C

Q. Same thing, different compound: O=P(c1ccccc1)(c1ccc(F)cc1)c1ccc(F)cc1
A. 103 to 105 °C

Q. Now this one: CC(=O)OC1CC(=O)C2(C)CCC3C(CCC4CC(=O)CC(C)(O)C43C)C12 (stereo not given)
A. 170 °C

Q. Would you mind doing CCCCNC(=O)c1ccc(C(F)(F)F)c(-n2nc(CC)n(Cc3ccc(-c4ccccc4S(=O)(=O)NC(=O)OC(C)(C)C)cc3F)c2=O)c1 as well?
A. 114 to 116 °C

Q. Now the compound Brc1ccccc1CCn1ccccc1=NC(=NC1CCCCC1)NC1CCCCC1
A. 125 to 129 °C

Q. Next up: O=C(O)/C=C(\c1cc(F)cc(F)c1)C(F)(F)F
A. 129 to 130 °C

Q. Item: N#CN(Cc1ccccc1)C(=O)CCCC(=O)N(C#N)Cc1ccccc1
A. 97.5 to 100 °C

Q. Next record, please: O=C1Nc2cc(C(F)(F)F)ccc2S(=O)(=O)c2ccccc21
A. 253 to 254 °C

Q. And the next one, CCCCCCNC(=O)Nc1ccccc1C(=O)NC1CCN(C(c2ccccc2)c2ccccc2)CC1 ?
A. 192 to 194 °C

Q. Follow-up item: CCOC(=O)C1CN(C2CC2)c2nc3cc(F)c(F)cc3cc2C1=O (stereo not given)
A. 172 °C

Q. Cool, now O=C(CCc1ccccc1)N[C@H]1CC[C@H](c2ccc(O)cc2)CC1
A. 201 to 206 °C

Q. Moving on to O=C(O)c1ccc(-c2nc(-c3ccc(C(F)(F)F)cc3)no2)c([N+](=O)[O-])c1
A. 233 to 234 °C

Q. Consider next the compound COc1cc2c(cc1Nc1ncc(Cl)c(Nc3cc(C(N)=O)ccc3OC)n1)CCN(C(=O)CN(C)C)CC2 in the same way.
A. 226 to 233 °C

Q. Please give the result for CCC(C)(NC(=O)c1cc(Cl)c(N)c(Cl)c1)C(=O)CCl (stereo not given) too.
A. 134 to 138 °C

Q. Similarly, COc1cc(C(=O)O)ccc1Cn1cnc2ccc(NC(=O)OC3CCCC3)cc21 ?
A. 241 to 242 °C

Q. Here is the next compound: COC(=O)c1ccc(-c2nc(-c3ccc4c(c3)C(C)(C)CCC4(C)C)cs2)cc1
A. 138 to 140 °C

Q. Same for COc1ccc(/C=N/Nc2cc(=O)[nH]c3cc(Cl)ccc23)cc1OC1CCCC1
A. 210 to 212 °C

Q. Follow-up entry: Cc1cc(O)ccc1S(C)(=O)=O
A. 105 °C

Q. Here is the next compound: c1cncc(-c2nsnc2SCCCc2cccs2)c1
A. 98 to 100 °C

* * *

measured metric: melting point

Q. Entry COc1ccc(Cl)cc1-c1c(Sc2ncccn2)c(=O)[nH]c2ccc(C(F)(F)F)cc12 : reported melting point = ?
A. 302 to 303 °C

Q. Okay, and Cc1cc(C)cc(C(=O)N(C)[C@H](Cc2ccccc2)C(=O)N[C@@H](Cc2c[nH]c3ccccc23)C(=O)O)c1 ?
A. 91 to 94 °C

Q. Same again, this time with CC(C)(C)OC(=O)N1CCN(c2ccc(NC(=O)Nc3cc(Cl)ccc3NS(C)(=O)=O)cc2)CC1
A. 127 °C

Q. What do you have for CC(C)c1nc(C(C)C)c(C(O)c2ccccc2)c(-c2ccc(F)cc2)c1CO (configuration not stated) ?
A. 202 to 204 °C

Q. Moving on to the next compound: COC(=O)c1ccccc1S(=O)(=O)NC(=O)Nc1nnc(C)c(C)n1
A. 150 to 151 °C

Q. Here is the next compound: CCCSc1cc(-c2c[nH]nc2C(F)(F)F)ccc1C(=O)OC
A. 114 to 116 °C

Q. Then this compound: COc1cc2cc(CO)c(CO)c(-c3ccnc(-n4c(=O)ccc5ccccc54)c3)c2cc1OC
A. > 230 °C

Q. Next: c1ccc2c(c1)c1ccccc1n2-c1ccc(-c2ccc(-n3c4ccccc4c4ccccc43)cc2)cc1
A. 280 to 281 °C

Q. Note, next up: CC(O)(CCN1CCOCC1)c1ccc(-c2ccc(Br)cc2)cc1 (configuration not stated)
A. 97 to 99 °C

Q. Queued: CCOc1cccc(COc2ccc3c(c2)C=C(C(=O)Nc2ccc(CN(C)C4CCOCC4)cc2)CCS3(=O)=O)c1
A. 189 to 192 °C

Q. // same read-out, input: O=C(c1ccccc1)c1ccccc1NC(=O)C(Cl)Cl
A. 112 to 114 °C

Q. Param item: Cc1cccc(Cl)c1CNC(=O)C(C)Br (configuration not stated)
A. 168 to 169 °C

Q. Same for Cc1ccc(-c2ccc([Si](C)(C)C)cc2)nc1
A. 66.1 °C

Q. # repeat for O=C(CCCN1CCCCC1)c1ccc2c(c1)Cc1cc(C(=O)CCCN3CCCCC3)ccc1O2
A. 115 to 117 °C

Q. Same lookup for NNC(=O)NCCS(=O)(=O)O , please.
A. 212 to 215 °C

Q. Then this compound: O=c1oc2ccccc2c(O)c1C1CC(c2ccc(OCc3ccc(-c4ccc(-c5ccccc5)cc4)cc3)cc2)Cc2ccccc21 (configuration not stated)
A. 245 to 248 °C

Q. Follow-up item: COc1ccc(C=CC(=O)N2CCc3c([nH]c4ccccc34)C2c2ccc3c(c2)OCO3)cc1O (configuration not stated)
A. 213 °C

Q. Here is the next compound: COC(=O)C(=O)c1ccc(OC/C=C/c2c(C(C)C)nc3ccccc3c2-c2ccc(F)cc2)cc1
A. 109 to 111 °C

Q. Also, Cc1cc(C(=O)O)ccc1OCCNC(=O)C1Cc2ccccc2N1S(=O)(=O)c1ccc(-c2cccc(C(F)(F)F)c2)cc1 (configuration not stated) please.
A. 102 to 108 °C

Q. Try the compound O=C(O)CC1(CNC(=O)OC(OC(=O)c2ccccc2)c2ccccc2)CCCCC1 (configuration not stated)
A. 75.5 to 76 °C

Q. Another compound to check: CN1C(=O)c2ccccc2CC1C(=O)NC(Cc1c[nH]cn1)C(=O)N1CCCC1C(N)=O (configuration not stated)
A. 140 to 145 °C

Q. Now consider O=C(Nc1ccccc1)c1nc(-c2ccc(Cl)cc2Cl)c(-c2ccc(Cl)cc2)s1 .
A. 167 to 168 °C

Q. Can you check COC(=O)c1sc(-c2ccccc2)c(Br)c1O next?
A. 85 to 87 °C

Q. # iterate: COc1ccc2c(Oc3ccc(OCCN4CCCCC4)cc3)c(-c3cccc(O)c3)ccc2c1
A. 170 to 171 °C

Q. Next record, please: CC(=O)Nc1ccc(S(=O)(=O)Nc2cc(Cl)nc(N3CCCC3)n2)cc1
A. 229 to 233 °C

Q. Another: CCc1cc2c(s1)S(=O)CCc1cc(=O)n(-c3ccc(Cl)cc3)nc1-2 (configuration not stated)
A. 173 to 174 °C

Q. Same lookup for Oc1nc2nc(SCc3ccccc3)nn2c(O)c1-c1c(F)cc(F)cc1F , please.
A. 273 °C

Q. Also need CCCn1c2cc(OC)ccc2c2oc(C(=O)Cl)cc21 , thanks.
A. 195 to 196 °C

Q. // repeat for Nc1ccc(S(=O)(=O)Nc2cccc3c(Cl)c[nH]c23)cn1 and report
A. 206 to 207 °C

Q. Record: CCCN(Cc1ccc(-c2ccccc2C2=NC(C)(C)CO2)cc1)C(c1ccccc1)(c1ccccc1)c1ccccc1
A. 151 to 153 °C

Q. Field entry: Cc1ccc([N+](=O)[O-])c(OCc2ccccc2)c1
A. 49 to 51 °C

Q. Moving on to the next compound: COC(=O)C1(Cl)CCC(=O)O1 (configuration not stated)
A. 50.5 to 51 °C

Q. For CCN1CCN(Cc2nc3sc(C)c(C)c3c(=O)n2-c2ccccc2Cl)CC1 then?
A. 126 to 129 °C

Q. Same thing, different compound: Cc1nccn1C(=O)c1ccccc1
A. 143 to 144 °C

Q. Now give it for O=C(O)CCCCCCCCn1c(-c2ccccc2)nc(-c2ccccc2)c1-c1ccccc1 too.
A. 149 to 150 °C

Q. Could you do the same for O=C(Cn1c(-c2ccc(F)cc2)ncc(NC(=O)OCc2ccccc2)c1=O)N[C@@H](Cc1ccccc1)C(=O)C(F)(F)C(=O)NCc1ccccc1 , please?
A. 185 to 186 °C

Q. Similarly, c1ccc2c(c1)Cn1cnnc1CN2 ?
A. 232 to 237 °C
